Target: T1, Axl protein (human, UniProt P30530 26-451)
T1 construct: extracellular domain; also called human Axl; hAxl
T1 sequence (looked up): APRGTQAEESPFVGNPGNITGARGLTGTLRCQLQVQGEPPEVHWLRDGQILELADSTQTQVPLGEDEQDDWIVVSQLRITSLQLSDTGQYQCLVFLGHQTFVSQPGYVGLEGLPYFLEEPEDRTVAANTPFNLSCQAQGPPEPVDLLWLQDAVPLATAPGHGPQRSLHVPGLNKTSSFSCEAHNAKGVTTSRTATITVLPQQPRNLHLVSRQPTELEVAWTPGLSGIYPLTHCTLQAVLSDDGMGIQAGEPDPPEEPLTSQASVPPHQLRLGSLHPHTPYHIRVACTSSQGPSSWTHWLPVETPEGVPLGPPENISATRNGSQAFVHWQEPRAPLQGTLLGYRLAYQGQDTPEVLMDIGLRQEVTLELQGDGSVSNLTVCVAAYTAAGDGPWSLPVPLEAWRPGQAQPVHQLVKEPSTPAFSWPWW
Test: ELISA, 1:3 dilution, pH 6.0 over pH 7.4
readout: Affinity ELISA CPE mutant ratio (1:3, pH 6.0/7.4) (ratio)
Just the number in ratio, nothing appended.

Asked: Would you mind telling me what Affinity ELISA CPE mutant ratio (1:3, pH 6.0/7.4) value was observed for HC-E102N (antibody, V domains shown) VH: EVQLVQSGAEVKKPGATVKISCKVSGYSFTGHTMNWIRQPPGKGLEWIGLIKPSNGGTSYNQKFKGRVTISADKSISTAYLQWSSLKASDTAMYYCAHGHYNSYFAMDYWGQGTLVTVSS VL: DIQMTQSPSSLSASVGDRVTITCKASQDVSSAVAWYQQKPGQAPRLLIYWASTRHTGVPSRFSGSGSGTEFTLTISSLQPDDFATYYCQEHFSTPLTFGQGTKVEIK ?
Given back: 1.52

Asked: Would you mind telling me what Affinity ELISA CPE mutant ratio (1:3, pH 6.0/7.4) value was observed for HC-S103M (antibody, V domains shown) VH: EVQLVQSGAEVKKPGATVKISCKVSGYSFTGHTMNWIRQPPGKGLEWIGLIKPSNGGTSYNQKFKGRVTISADKSISTAYLQWSSLKASDTAMYYCAHGHYEMYFAMDYWGQGTLVTVSS VL: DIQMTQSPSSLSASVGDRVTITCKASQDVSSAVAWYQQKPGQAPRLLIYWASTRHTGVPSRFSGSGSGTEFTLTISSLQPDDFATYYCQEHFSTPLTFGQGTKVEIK ?
Given back: 1.78

Asked: Would you mind telling me what Affinity ELISA CPE mutant ratio (1:3, pH 6.0/7.4) value was observed for HC-H100E (antibody, V domains shown) VH: EVQLVQSGAEVKKPGATVKISCKVSGYSFTGHTMNWIRQPPGKGLEWIGLIKPSNGGTSYNQKFKGRVTISADKSISTAYLQWSSLKASDTAMYYCAHGEYESYFAMDYWGQGTLVTVSS VL: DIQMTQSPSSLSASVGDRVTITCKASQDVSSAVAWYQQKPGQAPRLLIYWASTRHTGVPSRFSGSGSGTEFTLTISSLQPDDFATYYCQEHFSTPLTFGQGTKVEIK ?
Given back: 2.77
